Entries annotated with measured Kd
- Tested Target: T1, soluble human ILT4-ECD (human, UniProt Q8N423 22-460)
- T1 construct: also called LILRB2 extracellular domain
- T1 sequence (Q8N423 other isoform, or with tags, fused parts or gaps): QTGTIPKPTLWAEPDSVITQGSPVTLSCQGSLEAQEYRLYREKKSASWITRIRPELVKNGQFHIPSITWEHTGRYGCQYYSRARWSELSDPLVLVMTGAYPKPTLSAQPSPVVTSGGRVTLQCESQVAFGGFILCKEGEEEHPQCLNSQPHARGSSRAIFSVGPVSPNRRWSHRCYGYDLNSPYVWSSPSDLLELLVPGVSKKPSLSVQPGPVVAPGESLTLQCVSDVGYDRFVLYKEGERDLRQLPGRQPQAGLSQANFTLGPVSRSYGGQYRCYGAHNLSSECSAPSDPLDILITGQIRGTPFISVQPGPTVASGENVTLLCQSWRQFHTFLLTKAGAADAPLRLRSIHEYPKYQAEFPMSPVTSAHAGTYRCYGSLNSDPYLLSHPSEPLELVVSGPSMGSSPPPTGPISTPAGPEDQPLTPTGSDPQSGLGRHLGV
- Assay Procedure: SPR (Biacore), antibody captured on Protein A chip, soluble ILT-ECD injected (1.6-200 nM), 25 C

{"columns": ["Binder", "Kd (nM)"],
 "data": [
  ["anti-ILT4 antibody 48A5 (antibody, V domains shown, Mouse hybridoma antibody; also called clone 48A5; anti-ILT4 (48A5)) VH: QIQLVQSGPELKKPGETVKISCKASGYTFTNYGMNWVKQAPGKGLKWMGWINTYIGEPIYADDFKGRFAFSLETSASTAYLQINNLKNEDMATYFCARRSDYDGYAMDYWGQGTSVTVSS VL: DIVMSQSPSSLAVSVGERVTMSCKSSQSLLYSGNQKNYLAWYQQKPGQSPKLLIYWASTRESGVPDRFTGSGSGTDFTLTISSVKAEDLAVYYCQQHDSYPTFGGGSRLEIK", 0.026],
  ["anti-ILT4 antibody 47C8 (antibody, V domains shown, Mouse hybridoma antibody) VH: EVQLQQSGPDLVKPGASVKISCKASGYSFTGYYMHWVKQSHGKSLEWIGRVYPNNGDTSYNQKFKVKAILTVDKSSSTAYMELRSLTSEDSAVYYCARGATVVESLFAYWGQGTLVTVSA VL: DIVLTQSPASLAVSLGQRATISCRASESVDNYGNNFLHWYQQKPGQPPKLLIYRTSNLESGIPARFSGSGSRTDFTLTINPVEADDVATYYCQQSNEDPYTFGGGTKLEIK", 0.074],
  ["anti-ILT2/ILT4 antibody 73D1 (antibody, V domains shown, Mouse hybridoma antibody; Shares its light chain variable region with 73C4) VH: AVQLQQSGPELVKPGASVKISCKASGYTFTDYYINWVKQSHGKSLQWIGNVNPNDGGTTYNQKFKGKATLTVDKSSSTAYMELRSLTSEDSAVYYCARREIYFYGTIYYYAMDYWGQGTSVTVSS VL: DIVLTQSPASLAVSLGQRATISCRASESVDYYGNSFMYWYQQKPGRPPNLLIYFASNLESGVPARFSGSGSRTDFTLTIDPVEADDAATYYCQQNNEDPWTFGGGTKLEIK", 0.18],
  ["anti-ILT2/ILT4 antibody 47H6 (antibody, V domains shown, Mouse hybridoma antibody) VH: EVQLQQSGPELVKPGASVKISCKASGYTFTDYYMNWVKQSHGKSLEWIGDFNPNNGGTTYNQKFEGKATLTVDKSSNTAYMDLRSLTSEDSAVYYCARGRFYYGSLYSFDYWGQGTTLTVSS VL: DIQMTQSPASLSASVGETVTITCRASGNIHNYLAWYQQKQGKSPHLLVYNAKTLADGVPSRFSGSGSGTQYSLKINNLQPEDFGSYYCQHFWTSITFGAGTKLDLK", 0.76],
  ["anti-ILT2/ILT4 antibody 51A1 (antibody, V domains shown, Mouse hybridoma antibody) VH: EVQLVESGGGLVQPKGSLKLSCAASGFTFNTYAMHWVRQAPGKGLEWVARIRSKSSNYATYYADSVKDRFTISRDDSQSMLYLQMNNLKTEDTAMYYCVRDGIYYYGTMYYYAMDYWGQGTSVTVSS VL: NIVLTQSPASLAVSLGQRATISCRASESVDYYGNSFMYWYQQKPGQPPKLLIYFASNLESGVPARFSGSGSRTDFTLTIDPVEAADAASYYCQQNNEDPWTFGGGTKLEIK", 0.2]
]}
